Documented pD2 across a set of compounds
Species: Homo sapiens
EXPERIMENT NOTES: Tested for the ability to stimulate beta-glucuronidase release from human polymorphonuclear cells (PMN) (n=4)
Assay type: functional
Give the value as a plain number.

Some solved cases for reference:
[
  {
    "SMILES NOTATION": "CSCC[C@H](NC(=O)[C@@H]1CCCN1C(=O)[C@H](CCCCN)NC(=O)[C@H](Cc1ccccc1)NC(=O)[C@H](CO)NC(=O)[C@H](Cc1ccc(O)cc1)NC(=O)CCCCCNC(=O)[C@H](CCCCN)NC(=O)CNC(=O)[C@@H](N)CCCCN)C(=O)N1CCC[C@H]1C(=O)N[C@@H](CC(C)C)C(=O)N[C@H](C)C(=O)N[C@@H](CCCN=C(N)N)C(=O)O",
    "pD2": 5.31
  },
  {
    "SMILES NOTATION": "CSCC[C@H](NC(=O)[C@@H]1CCCN1C(=O)[C@H](CCCCN)NC(=O)[C@H](Cc1ccccc1)NC(=O)[C@H](CO)NC(=O)[C@H](Cc1ccc(O)cc1)NC(=O)CCCCCNC(=O)[C@H](Cc1c[nH]c2ccccc12)NC(=O)[C@@H](N)CC(=O)O)C(=O)N1CCC[C@H]1C(=O)N[C@@H](CC(C)C)C(=O)N[C@H](C)C(=O)N[C@@H](CCCN=C(N)N)C(=O)O",
    "pD2": 5.14
  }
]

Turning now to a further record.
Input: What pD2 value was documented for this compound, CSCC[C@H](NC(=O)[C@@H]1CCCN1C(=O)[C@H](CCCCN)NC(=O)[C@H](Cc1ccccc1)NC(=O)[C@H](CO)NC(=O)[C@H](Cc1ccc(O)cc1)NC(=O)CCCCCN)C(=O)N1CCC[C@H]1C(=O)N[C@@H](CC(C)C)C(=O)N[C@H](C)C(=O)N[C@@H](CCCN=C(N)N)C(=O)O ?
Output: 5.51

Attribution: ChEMBL document CHEMBL1129970
